Cited source: the supplement of paper PMC9112550

# System: Escherichia coli TOP10;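 further: peptides expressed intracellularly from a pBAD plasmid library in pooled LB shake-flask culture, induced with 0.3% L-arabinose, DNA abundance read by NGS, three biological replicates, DESeq2 with apeglm shrinkage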
# assay_protocol: shrunken log2 fold change of peptide-encoding DNA abundance (4.5 h post-induction vs induction); higher = less antimicrobial activity (less host growth inhibition)
# condition_summary: time post-induction: 4.5 h; library: site-saturation at positions 5, 18, 19, 20
shrunken log2 fold change of 0.2 or higher: true (1). Under 0.2: false (0).

RRIRERPPRLPRPRPRPNDYPRP
false (0)
RRIRSRPPRLPRPRPRPWPTPRP
true (1)
RRIRFRPPRLPRPRPRPMHHPRP
false (0)
RRIRCRPPRLPRPRPRPVPWPRP
false (0)
RRIRLRPPRLPRPRPRPPYEPRP
false (0)
RRIRHRPPRLPRPRPRPCNAPRP
false (0)
RRIRRRPPRLPRPRPRPECEPRP
true (1)
RRIRFRPPRLPRPRPRPGNFPRP
false (0)
RRIRCRPPRLPRPRPRPAAEPRP
true (1)
RRIRCRPPRLPRPRPRPFFLPRP
false (0)
RRIRQRPPRLPRPRPRPEGAPRP
true (1)
RRIRRRPPRLPRPRPRPDVCPRP
false (0)
RRIRARPPRLPRPRPRPGPLPRP
true (1)
RRIRLRPPRLPRPRPRPRSLPRP
false (0)
RRIRQRPPRLPRPRPRPPMHPRP
true (1)
RRIRVRPPRLPRPRPRPTCVPRP
false (0)
RRIRCRPPRLPRPRPRPSWQPRP
false (0)
RRIRGRPPRLPRPRPRPPTVPRP
true (1)
RRIRDRPPRLPRPRPRPCILPRP
true (1)
RRIRPRPPRLPRPRPRPKTVPRP
false (0)
RRIRVRPPRLPRPRPRPTYWPRP
false (0)
RRIRGRPPRLPRPRPRPFRVPRP
false (0)
RRIRHRPPRLPRPRPRPFEAPRP
false (0)
RRIRVRPPRLPRPRPRPLGLPRP
false (0)
RRIRIRPPRLPRPRPRPWSKPRP
false (0)
RRIRMRPPRLPRPRPRPKACPRP
true (1)
RRIRKRPPRLPRPRPRPLPSPRP
false (0)
RRIRKRPPRLPRPRPRPFAMPRP
true (1)
RRIRHRPPRLPRPRPRPWFEPRP
false (0)
RRIRGRPPRLPRPRPRPKNVPRP
false (0)
RRIRPRPPRLPRPRPRPNEFPRP
false (0)
RRIRKRPPRLPRPRPRPYEIPRP
false (0)
RRIRHRPPRLPRPRPRPKWTPRP
false (0)
RRIRSRPPRLPRPRPRPMPAPRP
true (1)
RRIRNRPPRLPRPRPRPCSIPRP
false (0)
RRIRDRPPRLPRPRPRPACRPRP
true (1)
RRIRARPPRLPRPRPRPPYHPRP
false (0)
RRIRRRPPRLPRPRPRPRRGPRP
true (1)
RRIRHRPPRLPRPRPRPAIMPRP
false (0)
RRIRNRPPRLPRPRPRPVWAPRP
true (1)
RRIRKRPPRLPRPRPRPCFWPRP
true (1)
RRIRKRPPRLPRPRPRPLLNPRP
false (0)
RRIRCRPPRLPRPRPRPYAVPRP
false (0)
RRIRVRPPRLPRPRPRPLILPRP
false (0)
RRIRKRPPRLPRPRPRPRTYPRP
false (0)
RRIRNRPPRLPRPRPRPPGMPRP
false (0)
RRIRTRPPRLPRPRPRPFIIPRP
false (0)
RRIRMRPPRLPRPRPRPILPPRP
false (0)
RRIRSRPPRLPRPRPRPLHEPRP
true (1)
RRIRQRPPRLPRPRPRPNHLPRP
false (0)
RRIRDRPPRLPRPRPRPAGDPRP
true (1)
RRIRGRPPRLPRPRPRPKDWPRP
true (1)
RRIRWRPPRLPRPRPRPWKFPRP
false (0)
RRIRGRPPRLPRPRPRPNNWPRP
false (0)
RRIRWRPPRLPRPRPRPNQFPRP
false (0)
RRIRPRPPRLPRPRPRPSRFPRP
true (1)
RRIRERPPRLPRPRPRPATCPRP
false (0)
RRIRQRPPRLPRPRPRPQGQPRP
true (1)
RRIRCRPPRLPRPRPRPYNGPRP
false (0)
RRIRKRPPRLPRPRPRPISAPRP
false (0)
RRIRTRPPRLPRPRPRPIAKPRP
false (0)
